experiment_description: qHTS for Inhibitors of TGF-b; further: nearly all actives have a fitted effect of over 65% in size
condition_info: HepG2 CAGA-GFP TGF-b/SMAD3 reporter, GFP fluorescence, 18 h, TGF-beta stimulated, 500 pg/mL final; series mostly up to 46.1 µM
The whole screen tested about 410,000 compounds, of which about 5,000 (1.2%) were called active. About 13% were inconclusive and are not listed. The call rests on the fitted dose curve; in most records, active means well fitted inhibition curve with a large enough effect; inconclusive means small, poorly fitted or top-dose-only effect; inactive means no such curve, though single readings can be large or run the other way. The entries come from a sample that favours actives as a whole.
The reply should be one of these categories: active, inactive

Answered examples (2):
C=CS(=O)c1sc(Cl)c(N2CCOCC2)c1[N+](=O)[O-] (stereo unspecified) :: active
Cc1ccc(C(=O)Nc2ccc(OCc3cc(=O)n4c5c(sc4n3)CCCC5)cc2)cc1 :: inactive

Inquiry: I'd appreciate the recorded outcome for CC1CC2=C(CC1/C=N/NC(N)=S)C(C)(C)CCC2 (stereo unspecified) from this test.
Reply text: active

Inquiry: What outcome does the record of this test show for Cc1c(-c2cccc(NC(=O)C(C)(C)C)c2)nc2ncccn12 ?
Reply text: inactive

Inquiry: // return assay outcome for CCCN(CCC)CCCNC(=O)Cn1cc2c(n1)-c1c(oc(C(=O)N3CCCC3)c1C)CC2
Reply text: inactive

Inquiry: Test call for this compound, please: COc1cc(C(=O)CCc2ccc3c(c2)OCO3)cc(OC)c1OC
Reply text: inactive

Inquiry: Recorded call for COc1c(O)ccc2c1CN1CCc3cc4c(cc3C1C2)OCO4 (stereo unspecified) ?
Reply text: active

Inquiry: Assay result, entry CCCCCCC1(C)NC(c2ccc3c(c2)OCO3)=CC(c2ccccc2O)N1 (stereo unspecified) — outcome?
Reply text: inactive

Inquiry: Record request — test call for Cc1onc(C(=O)NN)c1C(=O)N1CCN(C(c2ccccc2)c2ccccc2)CC1
Reply text: inactive

Inquiry: // outcome(item) with item = CC(C)OCC(O)CN1CCN(C(c2ccccc2)c2ccccc2)CC1 (stereo unspecified)
Reply text: inactive
